These data points were gathered from patent US10889581B2.

# TESTED SYSTEM: BACE1 (Homo sapiens (Human), UniProt P56817)
# Sequence (P56817 46-501): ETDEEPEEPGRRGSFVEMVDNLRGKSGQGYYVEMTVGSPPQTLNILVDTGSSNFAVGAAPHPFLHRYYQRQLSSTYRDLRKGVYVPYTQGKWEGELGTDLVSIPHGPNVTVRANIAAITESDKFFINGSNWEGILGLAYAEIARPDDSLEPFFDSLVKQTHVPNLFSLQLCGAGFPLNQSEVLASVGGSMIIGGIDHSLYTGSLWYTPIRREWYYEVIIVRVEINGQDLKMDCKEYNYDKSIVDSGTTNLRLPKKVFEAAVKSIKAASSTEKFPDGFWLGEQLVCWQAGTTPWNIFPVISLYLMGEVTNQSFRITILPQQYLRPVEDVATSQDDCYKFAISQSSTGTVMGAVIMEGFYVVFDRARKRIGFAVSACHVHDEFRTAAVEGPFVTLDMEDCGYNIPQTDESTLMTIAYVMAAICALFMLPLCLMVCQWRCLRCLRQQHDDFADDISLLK
# ASSAY TEXT: In vitro enzymatic BACE1 FRET assay
# Assay type: biochemical
# STATED CONDITIONS: pH 4.5, read-out: BACE1 Enzyme IC50
We label by threshold. Values of IC50 strictly beneath 0.05 µM are rule met. Values of 0.05 µM and up are rule not met.

[[record]]
molecule = "COC[C@]12CC1[C@@](C)(c1cc(C#Cc3ccc(C#N)cn3)ccc1F)N=C(N)S2 (stereo partly drawn) [Example 133]"
class_assignment = "rule not met"

[[record]]
molecule = "Cc1cc(C#N)cnc1C#Cc1ccc(F)c([C@@]2(CF)N=C(N)S[C@@]3(C(=O)N(C)C)C[C@H]32)c1 [Example 127]"
class_assignment = "rule met"

[[record]]
molecule = "N#C/C=C/[C@]12C[C@H]1[C@@](CF)(c1cc(C#Cc3ccc(C#N)cn3)ccc1F)N=C(N)S2 [Example 107]"
class_assignment = "rule met"

[[record]]
molecule = "N#Cc1ccc(C#Cc2ccc(F)c([C@@]3(CF)N=C(N)S[C@@]4(CF)C[C@H]43)c2)nc1 [Example 101]"
class_assignment = "rule not met"

[[record]]
molecule = "CN(C)C(=O)[C@]12C[C@H]1[C@@](C)(c1cc(C#Cc3ccc(C#N)cc3)ccc1F)N=C(N)S2 [Example 129]"
class_assignment = "rule met"

